- target_desc: T1, FZD9 cysteine-rich domain (CRD), MYC-tagged and GPI-anchored on CHO cells (human, UniProt O00144 35-161, GPI anchor)
- T1 construct: also called FZD9 CRD; CHO-myc-FZDGPI; not shown: MYC tag and GPI anchor signal
- T1 sequence: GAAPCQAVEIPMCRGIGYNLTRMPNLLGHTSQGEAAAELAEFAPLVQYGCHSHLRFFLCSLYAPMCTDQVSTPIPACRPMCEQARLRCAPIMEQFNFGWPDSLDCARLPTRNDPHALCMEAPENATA
- method_summary: flow cytometry, CHO-CRD cells;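 note: flow cytometry of Fab binding to CHO cells overexpressing a Frizzled CRD, with binding defined as median fluorescence over twice that of CHO cells lacking any Frizzled CRD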
Please provide measured median fluorescence for the entries that follow.
Answers are plain numbers.

[
  {
    "binder": "Fab-2934 (Fab, V domains shown, Fab; also called Fv-2934) VH: EVQLVESGGGLVQPGGSLRLSCAASGFNISYSYMHWVRQAPGKGLEWVASIYSSSGSTSYADSVKGRFTISADTSKNTAYLQMNSLRAEDTAVYYCARGAIDYWGQGTLVTVSS VL: DIQMTQSPSSLSASVGDRVTITCRASQSVSSAVAWYQQKPGKAPKLLIYSASSLYSGVPSRFSGSRSGTDFTLTISSLQPEDFATYYCQQWYHYGLITFGQGTKVEIK",
    "median fluorescence": 2.71
  }
]

Let us examine a further case.
Query :: median fluorescence for Fab-2922 (Fab, V domains shown, Fab; also called Fv-2922) VH: EVQLVESGGGLVQPGGSLRLSCAASGFNIYSSYMHWVRQAPGKGLEWVASISPYSGYTSYADSVKGRFTISADTSKNTAYLQMNSLRAEDTAVYYCARTVRGSKKPYFSGWAMDYWGQGTLVTVSS VL: DIQMTQSPSSLSASVGDRVTITCRASQSVSSAVAWYQQKPGKAPKLLIYSASSLYSGVPSRFSGSRSGTDFTLTISSLQPEDFATYYCQQSFVYPYLITFGQGTKVEIK ?
Result :: 2.89
